# System: Fibroblast
# METHOD SUMMARY: Multiplex assay against human fibroblast
# Assay type: toxicity, cell-based
# MEASUREMENT SETUP: 48 h, 1 µM, compound concentration 1 uM, replicate 2
Could you mark each record criterion met if its Population Pyknosed Nuclei (%) falls strictly under 20%, and criterion not met if it equals or exceeds it?

Known results for molecules:
molecule=Cc1nc2ccc(Oc3ccc(F)cc3)cc2c(=O)n1C[C@H]1CCCN(C(C)C)C1.Cl cat="criterion met"
molecule=CN1CCN(c2nc3cc(C(F)(F)F)ccc3n3cccc23)CC1.O=C(O)/C=C\C(=O)O.O=C(O)/C=C\C(=O)O cat="criterion not met"
molecule=O=C(NCCO)c1cccc(-c2cc(Nc3ccc(OC(F)(F)F)cc3)ncn2)c1 cat="criterion met"
molecule="O=S(=O)(c1ccccc1)c1cnc2c(N3CCNCC3)cccc2c1 [INTEPIRDINE]" cat="criterion met"
molecule="COc1cc(NC(=O)CCN2CCC(OC(=O)Nc3ccccc3-c3ccccc3)CC2)c(Cl)cc1CNC[C@H](O)c1ccc(O)c2[nH]c(=O)ccc12 [BATEFENTEROL]" cat="criterion met"

Query string: Strictly below 20%: is that where Population Pyknosed Nuclei (%) of c1cc(OCCCN2CCCCC2)ccc1CN1CCCCC1 [JNJ-5207852] sits?
Result string: criterion met

---

# Test system: HEK-293T
# METHOD SUMMARY: Multiplex assay against HEK293T
# Type: toxicity, cell-based
# MEASUREMENT SETUP: human, 12 h, 1 µM, compound concentration 1 uM, replicate 2
QUANTITY NAME: Population Tubulin-Different-Phenotype (%)
# number then unit; no other words

compound=COc1cc(C(=O)N(CCCc2ccccc2)Cc2ccc(CC(=O)O)cc2)cc(OC)c1C reported_result=19%
compound="c1cc(OCCCN2CCCCC2)ccc1CN1CCCCC1 [JNJ-5207852]" reported_result=17%
compound="O=C(NCC(=O)N1CC[C@H](N[C@H]2CC[C@@](O)(c3ccc(-c4ncccn4)cn3)CC2)C1)c1cccc(C(F)(F)F)c1 [PF-4136309]" reported_result=15%
compound=CCOc1c2c(c(OCC)c3ncccc13)CN(c1ccc(CS(=O)(=O)NC(=O)Cc3ccccc3OC)cc1C)C2=O reported_result=16%
compound="Cc1ccc(C(C)(O)c2nc3ccccc3s2)c(C)c1 (centres undefined)" reported_result=25%

Query string: Which measured Population Tubulin-Different-Phenotype (%) value corresponds to `CN(C)c1ccnc2sc3c(=O)n(N4CCCCCC4)cnc3c12` ?
Result string: 25%

Query string: Need Population Tubulin-Different-Phenotype (%) of CCCC(CCC)C(=O)O [VALPROIC ACID] , thanks.
Result string: 16%

Query string: Return reported Population Tubulin-Different-Phenotype (%); argument: `Cc1nc2ccc(Oc3ccc(F)cc3)cc2c(=O)n1C[C@H]1CCCN(C(C)C)C1.Cl`
Result string: 34%

Query string: # query: Population Tubulin-Different-Phenotype (%) of entry O=S(=O)(c1ccccc1)c1cnc2c(N3CCNCC3)cccc2c1 [INTEPIRDINE]
Result string: 23%

---

# Tested on: HEK-293T
# METHOD SUMMARY: Multiplex assay against HEK293T
# Format: toxicity, cell-based
# MEASUREMENT SETUP: human, 12 h, 10 µM, compound concentration 10 uM, replicate 2
QUANTITY NAME: Total Cell Count
Kindly provide the number alone.

Take a look at these entries with their results.
molecule="O=C(O)c1cc2ccccc2c(Cc2c(O)c(C(=O)O)cc3ccccc23)c1O [PAMOIC ACID]" quantity_name="Total Cell Count" reported_result=275
molecule=CN(C)c1ccnc2sc3c(=O)n(N4CCCCCC4)cnc3c12 quantity_name="Total Cell Count" reported_result=308
molecule="COc1ccc2c(c1)C(C(=O)N(Cc1ccc(N(C)C)cc1)c1ccc(C(C)C)cc1)CCC2.Cl (stereo not given)" quantity_name="Total Cell Count" reported_result=361

Query string: If you can, please state the reported Total Cell Count value of `Cc1nc2ccc(Oc3ccc(F)cc3)cc2c(=O)n1C[C@H]1CCCN(C(C)C)C1.Cl` .
Result string: 310

Query string: What value of measured Total Cell Count is listed for O=C(NCC(=O)N1CC[C@H](N[C@H]2CC[C@@](O)(c3ccc(-c4ncccn4)cn3)CC2)C1)c1cccc(C(F)(F)F)c1 [PF-4136309] ?
Result string: 295

Query string: What does the record list as Total Cell Count for N[C@@]1(C(=O)O)CO[C@H]2[C@H](C(=O)O)[C@H]21 [LY-379268] ?
Result string: 380

Query string: Look up Total Cell Count: `Cc1ccc(-c2ccc(F)cc2COc2ccc(CCC(=O)O)cc2)cc1`
Result string: 396

Query string: # input molecule: Cc1ccccc1C(=O)Nc1ccc(C(=O)N2CCCC(N(C)C)c3ccccc32)cc1.Cl (stereo not given) ; wanted: its Total Cell Count
Result string: 285

Query string: Consider the molecule CCNC1(C(N)=O)CCN(c2ncnc3c2nc(-c2ccccc2Cl)n3-c2ccc(Cl)cc2)CC1 [OTENABANT] and give its measured Total Cell Count.
Result string: 251

Query string: Record request: Total Cell Count value, item `O=C1COc2nccc(-c3ccccc3F)c2CN1Cc1cc(C(F)(F)F)cc(C(F)(F)F)c1`
Result string: 382

Query string: Give its Total Cell Count value. Item: `CC[C@H]1OC(=O)[C@H](C)[C@@H](O[C@H]2C[C@@](C)(OC)[C@@H](O)[C@H](C)O2)[C@H](C)[C@@H](O[C@@H]2O[C@H](C)C[C@H](N(C)C)[C@H]2O)[C@@]2(C)CC(C)=C(O2)[C@H](C)[C@@H](O)[C@]1(C)O`
Result string: 217

Query string: Fill blank: measured Total Cell Count of the molecule `COc1ccccc1N1CCN(CCCCNC(=O)c2ccc3ccccc3c2)CC1.Cl` is ____.
Result string: 256

Query string: Which Total Cell Count is reported for this molecule? `COc1cc(C(=O)N(CCCc2ccccc2)Cc2ccc(CC(=O)O)cc2)cc(OC)c1C`
Result string: 438

Query string: If you can, please state the reported Total Cell Count value of `CN(C)CCCc1cc(C(=O)Nc2ccc(-c3ccncc3)cc2)ccc1O.Cl.Cl` .
Result string: 391

Query string: Query: Total Cell Count; subject: CC1(COc2ccc3c(c2)ncn3-c2ccc3cccc(N4CCC(N)CC4)c3n2)COC1 [CRENOLANIB]
Result string: 376

Query string: Consider the molecule CC(C)(C)c1ccc(S(=O)(=O)Nc2ccc(Cl)cc2C(=O)c2cc[n+]([O-])cc2)cc1 [VERCIRNON] and give its measured Total Cell Count.
Result string: 344

Query string: Look up Total Cell Count for this molecule: CCCC(CCC)C(=O)O [VALPROIC ACID]
Result string: 446

Query string: Item CSc1ccccc1N1CCN(CCCCCC(=O)NC2CCCc3ccccc32)CC1.Cl (stereo not given) has what recorded Total Cell Count?
Result string: 304

Query string: Recorded Total Cell Count for Cl.Clc1ccc2nsnc2c1NC1=NCCN1 [TIZANIDINE HYDROCHLORIDE] , please?
Result string: 343

Query string: Param item = C[C@H](NC(=O)c1c(C(F)F)nn(C)c1Oc1cccc(C(F)(F)F)c1)c1ccc(C(=O)O)cc1 [PALUPIPRANT] ; retrieve measured Total Cell Count.
Result string: 293

Query string: // query Total Cell Count value for entry `CCOc1c2c(c(OCC)c3ncccc13)CN(c1ccc(CS(=O)(=O)NC(=O)Cc3ccccc3OC)cc1C)C2=O`
Result string: 362

Query string: Param item = `CCCn1c(=O)c2[nH]c(C3CCCC3)nc2n(CCC)c1=O` ; retrieve measured Total Cell Count.
Result string: 337

Query string: Return reported Total Cell Count; argument: CN1CCN2c3ncccc3Cc3ccccc3C2C1 (stereo not given) [MIRTAZAPINE]
Result string: 240
